- experimental_target: Fatty-acid amide hydrolase 1 (Homo sapiens)
- Sequence (O00519 whole entry): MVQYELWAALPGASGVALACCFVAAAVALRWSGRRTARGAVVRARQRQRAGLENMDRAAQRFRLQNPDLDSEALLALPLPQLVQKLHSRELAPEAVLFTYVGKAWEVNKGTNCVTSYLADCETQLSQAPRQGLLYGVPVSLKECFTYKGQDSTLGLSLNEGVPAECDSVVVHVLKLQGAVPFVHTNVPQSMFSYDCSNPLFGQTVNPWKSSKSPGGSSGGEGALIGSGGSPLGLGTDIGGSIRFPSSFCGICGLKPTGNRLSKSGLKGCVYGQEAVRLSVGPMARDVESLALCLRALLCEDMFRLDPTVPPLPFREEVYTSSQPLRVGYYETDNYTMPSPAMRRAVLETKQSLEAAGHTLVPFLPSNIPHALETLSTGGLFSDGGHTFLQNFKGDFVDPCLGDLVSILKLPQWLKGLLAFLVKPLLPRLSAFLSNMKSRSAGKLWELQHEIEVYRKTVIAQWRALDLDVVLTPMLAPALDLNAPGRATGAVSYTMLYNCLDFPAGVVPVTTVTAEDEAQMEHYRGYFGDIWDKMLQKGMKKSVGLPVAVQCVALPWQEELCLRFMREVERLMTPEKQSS
- measurement_notes: Inhibition of human FAAH expressed in H4 cells
recorded_endpoint: pIC50
Reminder that pIC50 is minus the log10 of a molar concentration.

compound=CCOC(=O)CCCCCCn1c(CC)nc(-c2ccccc2)c1-c1ccccc1 recorded_endpoint=pIC50 numeric_result=7.96

-- ask Hello, I am looking for reported pIC50 with Fatty-acid amide hydrolase 1 (Homo sapiens) for CCOC(=O)CC(C)CCCCCn1c(C)nc(-c2ccccc2)c1-c1ccccc1 (stereo not given) . Could you help?
-- reply 6.89

-- ask Hello, I am looking for reported pIC50 with Fatty-acid amide hydrolase 1 (Homo sapiens) for "Cc1nc(-c2ccccc2)c(-c2ccccc2)n1CCCCCCNC(=O)Oc1ccccc1F" . Could you help?
-- reply 8.70

-- ask Hello, I am looking for reported pIC50 with Fatty-acid amide hydrolase 1 (Homo sapiens) for "CCOC(=O)CCCCCn1c(CC)nc(-c2ccccc2)c1-c1ccccc1" . Could you help?
-- reply 7.49

-- ask Hello, I am looking for reported pIC50 with Fatty-acid amide hydrolase 1 (Homo sapiens) for "CNC(=O)CCCCCCn1c(C)nc(-c2ccccc2)c1-c1ccccc1" . Could you help?
-- reply 5.77

---

- experimental_target: UniProtKB P34972
- Sequence (P34972 whole entry): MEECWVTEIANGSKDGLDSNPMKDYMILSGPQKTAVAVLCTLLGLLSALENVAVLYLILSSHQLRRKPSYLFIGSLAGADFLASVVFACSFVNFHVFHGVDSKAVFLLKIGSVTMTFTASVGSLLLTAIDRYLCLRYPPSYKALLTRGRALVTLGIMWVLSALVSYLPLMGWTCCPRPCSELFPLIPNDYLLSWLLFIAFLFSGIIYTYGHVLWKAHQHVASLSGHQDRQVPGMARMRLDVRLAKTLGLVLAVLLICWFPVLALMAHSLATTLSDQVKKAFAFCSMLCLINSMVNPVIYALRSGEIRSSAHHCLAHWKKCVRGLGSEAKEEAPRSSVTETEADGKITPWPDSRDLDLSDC
recorded_endpoint: Ki (µM)
Only the number, expressed in µM, is required.

-- ask I would be grateful if you could share the reported Ki for "Cc1nc(-c2ccccc2)c(-c2ccccc2)n1CCCCCCNC(=O)Oc1ccccc1F" .
-- reply 28

---

- experimental_target: Cytosolic phospholipase A2 (Homo sapiens)
- Sequence (P47712 whole entry): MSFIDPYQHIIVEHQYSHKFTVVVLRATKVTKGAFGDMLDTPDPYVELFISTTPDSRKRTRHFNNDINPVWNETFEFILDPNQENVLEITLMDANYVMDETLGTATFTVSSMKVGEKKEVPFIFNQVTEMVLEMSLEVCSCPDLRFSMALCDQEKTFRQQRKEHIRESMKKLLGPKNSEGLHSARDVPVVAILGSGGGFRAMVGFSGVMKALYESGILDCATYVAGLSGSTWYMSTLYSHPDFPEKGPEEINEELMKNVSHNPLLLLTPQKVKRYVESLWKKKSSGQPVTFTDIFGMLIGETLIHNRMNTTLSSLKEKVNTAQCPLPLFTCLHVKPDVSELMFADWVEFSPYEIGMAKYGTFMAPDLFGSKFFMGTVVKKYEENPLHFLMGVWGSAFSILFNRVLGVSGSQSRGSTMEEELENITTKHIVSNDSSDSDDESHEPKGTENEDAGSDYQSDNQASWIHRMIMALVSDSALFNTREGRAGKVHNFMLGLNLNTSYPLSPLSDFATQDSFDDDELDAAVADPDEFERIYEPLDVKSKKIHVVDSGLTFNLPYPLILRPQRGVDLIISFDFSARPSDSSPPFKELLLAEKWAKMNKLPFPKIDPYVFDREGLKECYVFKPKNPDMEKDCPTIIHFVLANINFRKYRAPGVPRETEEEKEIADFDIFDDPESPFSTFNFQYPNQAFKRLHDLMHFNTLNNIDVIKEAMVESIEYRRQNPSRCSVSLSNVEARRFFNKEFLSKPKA
recorded_endpoint: pKi
Reminder that pKi is minus the log10 of a molar concentration.

-- ask I would be grateful if you could share the reported pKi for "Cc1nc(-c2ccccc2)c(-c2ccccc2)n1CCCCCCNC(=O)Oc1ccccc1F" .
-- reply 4.82

---

- experimental_target: Cannabinoid receptor 1 (Homo sapiens)
- Sequence (P21554 whole entry): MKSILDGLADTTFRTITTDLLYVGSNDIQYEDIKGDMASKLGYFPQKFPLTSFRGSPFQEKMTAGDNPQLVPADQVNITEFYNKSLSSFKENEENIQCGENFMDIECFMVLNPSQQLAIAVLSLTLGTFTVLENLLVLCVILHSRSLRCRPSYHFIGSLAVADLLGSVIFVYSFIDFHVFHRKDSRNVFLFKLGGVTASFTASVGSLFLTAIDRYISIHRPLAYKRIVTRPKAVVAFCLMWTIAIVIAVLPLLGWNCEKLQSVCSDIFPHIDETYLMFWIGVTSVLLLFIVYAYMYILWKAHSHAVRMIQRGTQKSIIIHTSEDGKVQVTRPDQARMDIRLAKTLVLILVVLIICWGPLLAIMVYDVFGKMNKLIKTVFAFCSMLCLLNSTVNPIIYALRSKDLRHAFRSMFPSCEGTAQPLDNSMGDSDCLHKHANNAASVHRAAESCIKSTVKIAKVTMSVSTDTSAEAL
recorded_endpoint: Ki (µM)
Only the number, expressed in µM, is required.

-- ask I would be grateful if you could share the reported Ki for "Cc1nc(-c2ccccc2)c(-c2ccccc2)n1CCCCCCNC(=O)Oc1ccccc1F" .
-- reply 23

---

- experimental_target: Fatty-acid amide hydrolase 1 (Homo sapiens, UniProt O00519)
- measurement_notes: Inhibition of human FAAH expressed in H4 cells
recorded_endpoint: IC50 (µM)
Only the number, expressed in µM, is required.

The cases that follow already have their IC50 on record.
compound="Cc1nc(-c2ccccc2)c(-c2ccccc2)n1CCCCCC(NC(=O)Oc1ccccc1F)c1ccccc1 (stereo unspecified)" numeric_result=0.11
compound=COC(=O)COc1cccc(-n2cnc(-c3ccccc3)c2-c2ccccc2)c1 numeric_result=6.5
compound="CCOC(=O)CC(CC)CCCCCn1c(C)nc(-c2ccccc2)c1-c1ccccc1 (stereo unspecified)" numeric_result=9.9

Let us examine a further case.
-- ask I would be grateful if you could share the reported IC50 for CCC(CCCCCn1c(C)nc(-c2ccccc2)c1-c1ccccc1)NC(=O)Oc1ccccc1F (stereo unspecified) .
-- reply 0.03

---

- experimental_target: Fatty-acid amide hydrolase 1 (Homo sapiens, UniProt O00519)
- Sequence (O00519 whole entry): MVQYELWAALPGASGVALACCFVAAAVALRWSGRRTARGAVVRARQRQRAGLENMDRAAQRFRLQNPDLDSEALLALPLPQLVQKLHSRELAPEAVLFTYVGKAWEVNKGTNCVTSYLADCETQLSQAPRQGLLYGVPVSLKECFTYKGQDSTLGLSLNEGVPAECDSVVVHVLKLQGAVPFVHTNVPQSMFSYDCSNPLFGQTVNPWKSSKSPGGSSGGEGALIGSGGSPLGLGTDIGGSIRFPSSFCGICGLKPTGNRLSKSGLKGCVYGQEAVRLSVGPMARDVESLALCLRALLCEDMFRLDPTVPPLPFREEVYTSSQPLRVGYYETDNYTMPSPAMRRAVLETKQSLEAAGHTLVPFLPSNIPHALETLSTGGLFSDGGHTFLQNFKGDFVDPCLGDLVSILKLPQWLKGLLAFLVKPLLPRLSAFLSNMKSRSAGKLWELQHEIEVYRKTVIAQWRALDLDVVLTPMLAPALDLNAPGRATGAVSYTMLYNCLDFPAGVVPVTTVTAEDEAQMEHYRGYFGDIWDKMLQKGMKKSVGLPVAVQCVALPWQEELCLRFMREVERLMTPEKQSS
- measurement_notes: Inhibition of human FAAH expressed in H4 cells
pIC50: −log10 of the molar value.
The label depends only on pIC50: Criterion met if it is at least 7, Criterion not met if it is smaller.

molecule=CNC(=O)NCCCCCCn1c(C)nc(-c2ccccc2)c1-c1ccccc1 assigned_label="Criterion not met"
molecule="Cc1nc(-c2ccccc2)c(-c2ccccc2)n1CCCCCC(C)NC(=O)Oc1ccccc1F (stereo not given)" assigned_label="Criterion met"
molecule=Cc1nc(-c2ccc(F)cc2)c(-c2ccc(F)cc2)n1CCCCCCNC(=O)Oc1ccccc1F assigned_label="Criterion met"
molecule=Cc1nc(-c2ccc(F)cc2)c(-c2ccc(F)cc2)n1CCCCCCNC(=O)Oc1c(F)cccc1F assigned_label="Criterion met"
molecule=Cc1nc(-c2ccccc2)c(-c2ccccc2)n1CCCCCCNC(=O)Oc1ccccc1 assigned_label="Criterion met"
molecule="CCOC(=O)CC(CCCCCn1c(C)nc(-c2ccccc2)c1-c1ccccc1)C(C)C (stereo not given)" assigned_label="Criterion not met"
molecule="Cc1nc(-c2ccccc2)c(-c2ccccc2)n1CCCCCC(NC(=O)Oc1ccccc1F)C(C)C (stereo not given)" assigned_label="Criterion not met"
molecule=Cc1nc(-c2ccccc2)c(-c2ccccc2)n1CCCCCCNC(=O)Nc1ccccc1 assigned_label="Criterion not met"
molecule=COC(=O)COc1ccc(-n2cnc(-c3ccccc3)c2-c2ccccc2)cc1 assigned_label="Criterion not met"
molecule=CCc1nc(-c2ccccc2)c(-c2ccccc2)n1CCCCCCCC(=O)OC assigned_label="Criterion met"

-- ask Does "CCCN(CCCCCCn1c(C)nc(-c2ccccc2)c1-c1ccccc1)C(=O)Oc1ccccc1F" have a reported pIC50 of at least 7?
-- reply Criterion not met

-- ask Does "Cc1nc(-c2ccccc2)c(-c2ccccc2)n1CCCCCCC(=O)N(C)C" have a reported pIC50 of at least 7?
-- reply Criterion not met

---

- experimental_target: Fatty-acid amide hydrolase 1 (Homo sapiens, UniProt O00519)
- measurement_notes: Inhibition of human FAAH expressed in H4 cells
recorded_endpoint: IC50 (nM)
Only the number, expressed in nM, is required.

record_smiles=CCOC(=O)CCCCCCn1c(C)nc(-c2ccc(F)cc2)c1-c1ccc(F)cc1 units_label=nM numeric_result=64

-- ask I would be grateful if you could share the reported IC50 for "CCOC(=O)CCCOc1cccc(-n2cnc(-c3ccccc3)c2-c2ccccc2)c1" .
-- reply 91

-- ask I would be grateful if you could share the reported IC50 for "CCOC(=O)CCCOc1ccc(-n2cnc(-c3ccccc3)c2-c2ccccc2)cc1" .
-- reply 64
